Target: HNF4alpha2 (COS-7 nuclear extract) (Homo sapiens, UniProt P41235 1-474)
Sequence: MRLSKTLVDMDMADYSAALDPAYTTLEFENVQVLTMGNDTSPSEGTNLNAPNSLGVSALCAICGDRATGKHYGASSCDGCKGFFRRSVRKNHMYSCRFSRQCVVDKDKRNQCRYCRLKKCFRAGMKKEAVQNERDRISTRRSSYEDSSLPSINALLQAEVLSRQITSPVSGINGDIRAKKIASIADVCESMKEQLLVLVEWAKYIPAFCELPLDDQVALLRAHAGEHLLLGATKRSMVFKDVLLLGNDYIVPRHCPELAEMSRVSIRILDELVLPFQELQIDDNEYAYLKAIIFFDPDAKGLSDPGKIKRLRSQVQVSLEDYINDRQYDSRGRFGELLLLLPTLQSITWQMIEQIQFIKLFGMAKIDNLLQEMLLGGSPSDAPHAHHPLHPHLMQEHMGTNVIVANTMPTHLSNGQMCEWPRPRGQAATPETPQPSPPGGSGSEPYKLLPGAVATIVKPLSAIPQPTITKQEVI
Experiment: protein-binding microarray; COS-7 nuclear extract on double-stranded Agilent 4x180k PBM; binding buffer, salt, pH and temperature not given in the material; high values mean tight binding
Conditions: chain copies: 2; label: 3' end of strand 1 on the slide; dsDNA, one strand shown
The full ranking holds about 18,000 sequences; the median of “log2 normalized intensity” is about 0.39, and the highest 2% start at about 6.6. The sample as a whole holds a higher share of the highest values than the screen did.
quantityKind: binding signal (log2 normalized intensity)

CAGAGAGAAGCCACTGCGACCTTTGCCCTCGCCTAGGGAGATTAGAGTATCGGTCGA : 9.89
TTCTGCCCCTTGCTCCTGCTTGCTGGCTTTGCCTAGGGAGATTAGAGTATCGGTCGA : 1.2
GACCTTTGCCCTCTGGCCCTTAAAGGCTTTGCCTAGGGAGATTAGAGTATCGGTCGA : 6.99
CCCTGCCTGACCTGCCCTTTGTCCCTCCTGGCCTAGGGAGATTAGAGTATCGGTCGA : 4.51
CTCTCGGGCCAGCTGTACAAATAAAGGATGGCCTAGGGAGATTAGAGTATCGGTCGA : -0.146
AGAAGCCACTGCGACCTTTGCCCTCCCTAAGCCTAGGGAGATTAGAGTATCGGTCGA : 7.38
CTTTGCCCTCCCTAAATCCAGAGGTATTTGGCCTAGGGAGATTAGAGTATCGGTCGA : 1.88
TCAGCCTTCTCCGCGGCGGGCCCTCGACCTGCCTAGGGAGATTAGAGTATCGGTCGA : -0.582
AGAGGACAGAAGAAGGAAAAGGCCTGACCTGCCTAGGGAGATTAGAGTATCGGTCGA : -0.388
CCCTCGACCTTTGCCCTCCATAAGGGGGAGGCCTAGGGAGATTAGAGTATCGGTCGA : 6.24
CGGTCAGCTGCTTGACTTAGTACATGGCCTGCCTAGGGAGATTAGAGTATCGGTCGA : 0.557
GAATGCAACCACACCAACATGGACTTTGTCGCCTAGGGAGATTAGAGTATCGGTCGA : 6.09
CCTCCTAATCACTGCCCTTTGGTGCCTCTTGCCTAGGGAGATTAGAGTATCGGTCGA : 2.28
TGAATATGTACATGGACTTTGAACCAAGATGCCTAGGGAGATTAGAGTATCGGTCGA : 8.36
TATGTGATCAGATGTGGACAATCATTGTGCGCCTAGGGAGATTAGAGTATCGGTCGA : 1.53
ACAGAAGAAGGAAAAGGCCTGACCTTTGCCGCCTAGGGAGATTAGAGTATCGGTCGA : 4.61
CCACTGCGACCTTTGCCCTCCCTAAATCCAGCCTAGGGAGATTAGAGTATCGGTCGA : 6.95
GGCTTGTACCTTGACCTTCTCTGTTAACCCGCCTAGGGAGATTAGAGTATCGGTCGA : 4.27
CCCTCCCTAAATCCAGAGGTATTTGGCCCAGCCTAGGGAGATTAGAGTATCGGTCGA : 1.59
